tested on: FMOC09 (patient-derived high-grade serous ovarian cancer cells); experiment: drug sensitivity score (DSS3, normalised partial AUC of % inhibition dose-response) (DSS (score)); higher = more sensitive (stronger inhibition of viability); extreme values may be limits of the assay; settings: 72 h; library: FO5A; assay format: 2D, 384-well, CellTiter-Glo
The reader will find reported drug sensitivity score values listed item by item below.
I'd appreciate a reply containing only the number, no unit.

compound	system_under_test	drug sensitivity score
COc1cc(OC)c(/C=C/S(=O)(=O)Cc2ccc(OC)c(NCC(=O)O)c2)c(OC)c1 [Rigosertib]	FMOC09	15.4

Please report drug sensitivity score with FMOC09 for item Cc1sc2c(c1C)C(c1ccc(Cl)cc1)=N[C@@H](CC(=O)NCCCCNC(=O)COc1cccc3c1C(=O)N(C1CCC(=O)NC1=O)C3=O)c1nnc(C)n1-2 (stereo partly drawn) [dBET1] . 4.5

Please report drug sensitivity score with FMOC09 for item CON(C)C(=O)N1N=C(c2cc(F)ccc2F)S[C@@]1(CCCN)c1ccccc1 [Filanesib] . 7.5

Please report drug sensitivity score with FMOC09 for item COCC1(CO)C(=O)C2CCN1CC2 (stereo not drawn) [APR-246] . 0

Please report drug sensitivity score with FMOC09 for item CN1C(=O)N[C@H](Cc2c[nH]c3c(Cl)cccc23)C1=O [Necrostatin 2] . 0

Please report drug sensitivity score with FMOC09 for item CCN(CC)CCN(Cc1ccc(-c2ccc(C(F)(F)F)cc2)cc1)C(=O)Cn1c(SCc2ccc(F)cc2)nc(=O)c2c1CCC2 [Darapladib] . 0

Please report drug sensitivity score with FMOC09 for item C=C1C[C@@H]2CC[C@@]34C[C@H]5O[C@H]6[C@@H](O3)[C@H]3O[C@H](CC[C@@H]3O[C@H]6[C@H]5O4)CC(=O)C[C@@H]3[C@@H](OC)[C@@H](C[C@H](O)CN)O[C@H]3C[C@H]3O[C@@H](CC[C@@H]1O2)C[C@@H](C)C3=C [Eribulin] . 13.1

Please report drug sensitivity score with FMOC09 for item FC(F)c1nc2ccccc2n1-c1nc(N2CCOCC2)nc(N2CCOCC2)n1 [ZSTK474] . 11.8

----------
test system: FMOC25_1 (patient-derived low-grade serous ovarian cancer cells); assay: drug sensitivity score (DSS3, normalised partial AUC of % inhibition dose-response) (DSS (score)); higher = more sensitive (stronger inhibition of viability); extreme values may be limits of the assay; settings: 72 h; library: FO4B; assay format: 2D, 384-well, CellTiter-Glo
The reader will find reported drug sensitivity score values listed item by item below.
I'd appreciate a reply containing only the number, no unit.

Use the examples below as a reference point.
compound	drug sensitivity score
C=CC(=O)Nc1cccc(Nc2nc(Nc3ccc(N4CCN(C(C)=O)CC4)cc3OC)ncc2C(F)(F)F)c1 [Rociletinib]	9.2
CC[C@@H]1C(=O)OC[C@@H]1Cc1cncn1C [Pilocarpine]	0
CN(C)c1cc2c(cc1Sc1nc3c(N)nccc3n1CCNCC(C)(C)C)OCO2 [CUDC-305]	12.2

Annotate the compound c1cn2cc(-c3ccc4cn[nH]c4c3)nc(Nc3ccc(N4CCOCC4)cc3)c2n1 [Entospletinib] with its measured drug sensitivity score. 0.1

----------
test system: FMOC06 (patient-derived mucinous ovarian cancer cells); assay: drug sensitivity score (DSS3, normalised partial AUC of % inhibition dose-response) (DSS (score)); higher = more sensitive (stronger inhibition of viability); extreme values may be limits of the assay; details: 72 h; library: FO5A; assay format: 2D, 384-well, CellTiter-Glo
The reader will find reported drug sensitivity score values listed item by item below.
I'd appreciate a reply containing only the number, no unit.

Annotate the compound Nc1nccc(-c2c(-c3ccc(F)cc3)ncn2C2CCCCC2)n1 with its measured drug sensitivity score. 0.1

Annotate the compound Nc1ncn([C@@H]2O[C@H](CO)[C@@H](O)[C@H]2O)c(=O)n1 with its measured drug sensitivity score. 1.3

Annotate the compound CC[C@@](C)(Nc1ccnc(-c2c[nH]c3ncccc23)n1)C(=O)NCC(F)(F)F with its measured drug sensitivity score. 2.6

Annotate the compound C[C@]12CC[C@H](O)CC1=CC[C@@H]1[C@@H]2CC[C@]2(C)C(c3cccnc3)=CC[C@@H]12 with its measured drug sensitivity score. 0.1

Annotate the compound COc1cc(N2CCC(N3CCN(C)CC3)CC2)ccc1Nc1ncnc(Nc2ccccc2S(=O)(=O)C(C)C)n1 with its measured drug sensitivity score. 4.9

Annotate the compound O=C1Cc2cc(C(=O)NC3C[C@H]4CC[C@@H](C3)N4S(=O)(=O)CC3CCN(CCCC(F)(F)F)CC3)c(Cl)cc2N1 (stereo partly drawn) with its measured drug sensitivity score. 2.3

Annotate the compound CCN(CC)Cc1ccc2cc(COC(=O)Nc3ccc(C(=O)NO)cc3)ccc2c1 with its measured drug sensitivity score. 5.2

Annotate the compound COc1cc2c(cc1-c1c(C)noc1C)ncc1[nH]c(=O)n([C@H](C)c3ccccn3)c12 with its measured drug sensitivity score. 4.7

----------
The reader will find reported drug sensitivity score values listed item by item below.
test system: FMOC25_2 (patient-derived low-grade serous ovarian cancer cells); assay: drug sensitivity score (DSS3, normalised partial AUC of % inhibition dose-response) (DSS (score)); higher = more sensitive (stronger inhibition of viability); extreme values may be limits of the assay; conditions: 72 h; library: FO5A; assay format: 2D, 384-well, CellTiter-Glo
I'd appreciate a reply containing only the number, no unit.

Use the examples below as a reference point.
compound	drug sensitivity score
C[C@H]1CNCCCN1S(=O)(=O)c1cccc2cncc(F)c12	0
CC(C)(C)NC(=O)[C@H]1CC[C@H]2[C@@H]3CC[C@H]4NC(=O)C=C[C@]4(C)[C@H]3CC[C@]12C [Finasteride]	0
Cc1cc(C)c(CNC(=O)c2cc(-c3ccc(CN4CCOCC4)cc3)cc3c2cnn3C2CCCC2)c(=O)[nH]1	1.8

As a next step, examine the compound that follows.
Annotate the compound Cc1nn(C)c(COc2ccc(N3CCN(S(=O)(=O)N(C)C)CC3)cc2)c1-c1cccc2c(CCCOc3cccc4ccccc34)c(C(=O)O)n(CCN3CCOCC3)c12 with its measured drug sensitivity score. 4.7

----------
test system: FMOC24 (patient-derived high-grade serous ovarian cancer cells); experiment: drug sensitivity score (DSS3, normalised partial AUC of % inhibition dose-response) (DSS (score)); higher = more sensitive (stronger inhibition of viability); extreme values may be limits of the assay; details: 72 h; library: FO5A; assay format: 2D, 384-well, CellTiter-Glo
The threshold is inclusive: drug sensitivity score of exactly 3 counts as yes; values below receive no.

Tell me whether drug sensitivity score is at least 3 here: CN1CCN(c2cc(C(=O)Nc3ccc4c(c3)-c3c(c(C(N)=O)nn3-c3ccc(F)cc3)CC4)c(Cl)cn2)CC1 [PHA 408] yes

----------
test system: FMOC06; assay: drug sensitivity score (DSS3, normalised partial AUC of % inhibition dose-response) (DSS (score)); higher = more sensitive (stronger inhibition of viability); extreme values may be limits of the assay; details: 72 h; library: FO5A; assay format: 2D, 384-well, CellTiter-Glo
The threshold is inclusive: drug sensitivity score of exactly 5 counts as t; values below receive f.

molecule	system_under_test	label
O=C(NC[C@H](O)CN1CCc2ccccc2C1)c1cc(NC2COC2)ncn1	FMOC06	f

Tell me whether drug sensitivity score is at least 5 here: CC(=O)c1cnc2ccc(-c3cc(Cl)c(O)c(Cl)c3)nc2c1N[C@H]1CC[C@H](CN(C)C)CC1 [OTS167] t

Tell me whether drug sensitivity score is at least 5 here: Nc1nc(Cl)nc2c1ncn2[C@@H]1O[C@H](CO)[C@@H](O)[C@@H]1F [Clofarabine] t

Tell me whether drug sensitivity score is at least 5 here: O=C(O)C1(C(=O)O)CCC1.[NH2-].[NH2-].[Pt+2] [Carboplatin] f

Tell me whether drug sensitivity score is at least 5 here: CC1(C)CCC(c2ccc(Cl)cc2)=C(CN2CCN(c3ccc(C(=O)NS(=O)(=O)c4ccc(N[C@H](CCN5CCOCC5)CSc5ccccc5)c(S(=O)(=O)C(F)(F)F)c4)cc3)CC2)C1 [Navitoclax] t

----------
tested on: FMOC25_2; assay: drug sensitivity score (DSS3, normalised partial AUC of % inhibition dose-response) (DSS (score)); higher = more sensitive (stronger inhibition of viability); extreme values may be limits of the assay; settings: 72 h; library: FO5A; assay format: 2D, 384-well, CellTiter-Glo
The threshold is inclusive: drug sensitivity score of exactly 4 counts as yes; values below receive no.

For orientation, consider the following solved cases.
molecule	label
COc1cc(Nc2ncc(F)c(Nc3ccc4c(n3)NC(=O)C(C)(C)O4)n2)cc(OC)c1OC [Tamatinib]	yes
C=CC(=O)Nc1cc(Nc2nccc(-c3cn(C)c4ccccc34)n2)c(OC)cc1N(C)CCN(C)C [Osimertinib]	yes
Cn1cnc2c(F)c(Nc3ccc(Br)cc3Cl)c(C(=O)NOCCO)cc21 [Selumetinib]	yes

Tell me whether drug sensitivity score is at least 4 here: COC(=O)c1ccc2c(c1)NC(=O)/C2=C(\Nc1ccc(N(C)C(=O)CN2CCN(C)CC2)cc1)c1ccccc1 [Nintedanib] no

Tell me whether drug sensitivity score is at least 4 here: O=C1CCc2c(Oc3ccc4c(c3)[C@@H]3[C@H](O4)[C@H]3c3nc4cc(C(F)(F)F)ccc4[nH]3)ccnc2N1 [BGB-283] yes

Ref: the supplement of paper PMC9938120
